Biological target: HCV NS3 helicase (Hepatitis C virus genotype 1b, UniProt P26663)
Construct: full-length NS3 (1-631), purified at Array BioPharma
Sequence (P26663 1027-1657): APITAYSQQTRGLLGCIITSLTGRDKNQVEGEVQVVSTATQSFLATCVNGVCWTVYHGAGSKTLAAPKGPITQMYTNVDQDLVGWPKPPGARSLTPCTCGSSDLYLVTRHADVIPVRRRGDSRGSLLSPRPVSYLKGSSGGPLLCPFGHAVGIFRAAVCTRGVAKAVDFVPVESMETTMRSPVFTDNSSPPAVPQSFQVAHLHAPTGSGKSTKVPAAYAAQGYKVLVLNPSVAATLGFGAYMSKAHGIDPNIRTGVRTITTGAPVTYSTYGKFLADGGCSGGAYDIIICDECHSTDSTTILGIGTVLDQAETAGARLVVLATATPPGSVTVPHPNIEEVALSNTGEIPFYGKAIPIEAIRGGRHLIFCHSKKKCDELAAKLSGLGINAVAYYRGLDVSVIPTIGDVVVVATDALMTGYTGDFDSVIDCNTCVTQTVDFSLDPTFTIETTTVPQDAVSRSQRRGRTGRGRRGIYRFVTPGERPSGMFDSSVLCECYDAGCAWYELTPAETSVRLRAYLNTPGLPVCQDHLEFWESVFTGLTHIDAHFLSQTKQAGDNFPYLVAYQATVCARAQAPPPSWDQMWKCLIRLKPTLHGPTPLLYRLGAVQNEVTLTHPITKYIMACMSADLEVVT
Assay: HCV Helicase Prompt FRET Assay (Example A)
Assay type: biochemical
Conditions: IC50 Activity, HCV NS3 helicase; tables do not say whether Example A or Example B assay
pIC50: −log10 of the molar value.
propertyName: pIC50

Query :: Sample CCOC(=O)C(O)(c1cn(-c2ccc([N+](=O)[O-])cc2C)c2ccc(Br)cc12)C(F)(F)F (stereo not shown) — what was its pIC50?
Result :: < 4.30

---

Measured pIC50 by item
Target: HCV NS3 helicase (Hepatitis C virus genotype 1b, UniProt P26663)
Construct: full-length NS3 (1-631), purified at Array BioPharma
Assay: HCV Helicase Prompt FRET Assay (Example A)
Type: biochemical
Conditions: HCV NS3 helicase; tables do not say whether Example A or Example B assay; read-out: IC50 Activity
pIC50: −log10 of the molar value.

Example cases with answers are listed next.
| sampleSmiles | testedOn | reading |
| --- | --- | --- |
| O=C(O)Cc1cn(-c2ccc(N(CCO)Cc3ccccc3)cc2)c2ccccc12 | HCV NS3 helicase (Hepatitis C virus genotype 1b, UniProt P26663) | 4.30 to 5.00 |
| CC(C)c1ccc(Cn2c(C(=O)NCCc3ccccn3)c(CC(=O)O)c3ccccc32)cc1 | HCV NS3 helicase (Hepatitis C virus genotype 1b, UniProt P26663) | 4.30 to 5.00 |
| Clc1ccc2scc(Cn3c(-c4ccccc4)c(Cc4nnn[nH]4)c4ccccc43)c2c1 | HCV NS3 helicase (Hepatitis C virus genotype 1b, UniProt P26663) | > 5.00 |

Lab note: next molecule to report on.
Query :: Sample `O=C(O)Cc1cn(Cc2cccc(OCc3ccccc3)c2)c2ccccc12` — what was its pIC50?
Result :: 4.30 to 5.00

---

Target: HCV NS3 helicase (Hepatitis C virus genotype 1b)
Construct: full-length NS3 (1-631), purified at Array BioPharma
Assay: HCV Helicase Prompt FRET Assay (Example A)
Type: biochemical
Details: Table 33, compounds made using Scheme 50; read-out: IC50 Activity
pIC50: −log10 of the molar value.
propertyName: pIC50

Example cases with answers are listed next.
| sampleSmiles | pIC50 |
| --- | --- |
| Nc1cc(-c2ccc3c(CC(=O)O)cn(Cc4csc5ccc(Cl)cc45)c3c2)ncn1 | 4.30 to 5.00 |
| O=C(O)Cc1cn(Cc2csc3ccc(Cl)cc23)c2cc(-c3ccc4nn[nH]c4c3)ccc12 | 4.30 to 5.00 |
| Nc1ccnc(-c2ccc3c(CC(=O)O)cn(Cc4csc5ccc(Cl)cc45)c3c2)n1 | 4.30 to 5.00 |

Query :: Form field - read-out: pIC50; system: HCV NS3 helicase (Hepatitis C virus genotype 1b); submitted item: `O=C(O)Cc1cn(Cc2csc3ccc(Cl)cc23)c2cc(-c3ccc4nc[nH]c4c3)ccc12`
Result :: 4.30 to 5.00

---

Target: HCV NS3 helicase (Hepatitis C virus genotype 1b)
Construct: full-length NS3 (1-631), purified at Array BioPharma
Assay: HCV Helicase Prompt FRET Assay (Example A)
Assay type: biochemical
Conditions: Table 29, compounds made using Scheme 36; read-out: IC50 Activity
pIC50: −log10 of the molar value.
propertyName: pIC50

Query :: Sample Nc1ncc(C(=O)O)c(-c2ccc3c(CC(=O)O)cn(Cc4csc5ccc(Cl)cc45)c3c2)n1 [Example 621] — what was its pIC50?
Result :: < 4.30
